- METHOD_NOTES: P. aeruginosa biofilm formation inhibitors, primary screen, strain PAO1, LB-PBS medium, absorbance 600 nm (AID 1176); also: test concentration not given here
- TEST_CONTEXT: P. aeruginosa PAO1 growth/biofilm, A600, 12 h; higher = more signal
Quick rule for you: z-score at 0.2 or higher means 1.0, lower means 0.0.

COMPOUND	LABEL_VALUE
CCOC(=O)[C@H](Cc1ccccc1)NC(=O)CCC1CC(OC(=O)NCc2cccc3ccccc23)CC2(CCCC(COC(=O)NCC(c3ccccc3)c3ccccc3)O2)O1 (some centres undefined)	0.0
CCOC(=O)[C@H](CC(C)C)NC(=O)CCC1CC(OC(=O)NCc2cccc3ccccc23)CC2(CCCC(COC(=O)NCCOC)O2)O1 (some centres undefined)	1.0
C[C@@H](ON=C1[C@H]2CCn3c(=O)n(-c4ccccc4)c(=O)n3[C@H]2[C@H](O)[C@@H]2O[C@H]12)c1cn([C@@H]2COC[C@H]2O)nn1	1.0
O=C1[C@H]2[C@H]3[C@H](O)[C@H](O)CC(=NOC[C@@H](O)COCc4ccco4)[C@H]3CC[C@H]2C(=O)N1Cc1ccccc1	1.0
CC(=O)OC[C@H]1O[C@H](CCON=C2[C@H]3CCn4c(=O)n(-c5ccccc5)c(=O)n4[C@H]3[C@H](O)[C@@H]3O[C@H]23)C=C[C@@H]1OC(C)=O	0.0
COC(=O)CC=C[C@@H](C)[C@@H](C=NOCC[C@@H]1C=C[C@H](OC(C)=O)[C@@H](COC(C)=O)O1)NS(=O)(=O)c1ccc(C)cc1	1.0
O=C(NN=C1C[C@@H](O)[C@@H](O)[C@@H]2[C@@H]3C(=O)N(C[C@@H]4CCCO4)C(=O)[C@@H]3CC[C@H]12)OCc1ccccc1	0.0
CC(CCN1CCCCc2nc(C)c(C)cc21)=NOC[C@@H](O)COCc1ccco1	0.0
C=CC[C@@H]1C=C[C@H](ON=C(C)CCN2CCc3nc(-c4ccccc4)c(-c4ccccc4)cc3C2)[C@@H](CO)O1	0.0
CO[C@H]1COC(=O)CC=C[C@H](C)[C@@H](OC)COC(=O)[C@@H](C)COC(=O)CC=C[C@@H]1C	0.0
CCOC(=O)NN=C1C[C@@H](O)[C@@H](O)[C@@H]2[C@@H]3C(=O)N(Cc4ccc5c(c4)OCO5)C(=O)[C@@H]3CC[C@H]12	0.0
CC(=O)OC[C@H]1O[C@H](C#Cc2ccccc2)C=C[C@@H]1OC(C)=O	0.0
C=CC[C@@H]1C=C[C@H](ON=C2[C@H]3CCn4c(=O)n(-c5ccccc5)c(=O)n4[C@H]3[C@H](O)[C@@H]3O[C@H]23)[C@@H](CO)O1	1.0
COC(=O)[C@@H]1CC[C@H](C)[C@@H](c2ccc(C)cc2)N1C(=O)c1ccc(C=NO[C@@H](C)c2cn([C@H](CO)Cc3ccccc3)nn2)cc1	0.0
Cc1ccc(S(=O)(=O)N[C@H]2COC(=O)CC=C[C@@H](C)COC(=O)CC=C[C@@H]2C)cc1	0.0
CC(C)(C)N1C(=O)[C@H]2[C@H]3[C@H](O)[C@H](O)CC(=NOCc4ccccc4)[C@H]3CC[C@H]2C1=O	0.0
CCOC(=O)NN=C1C[C@@H](O)[C@@H](O)[C@@H]2[C@@H]3C(=O)N(Cc4ccccc4)C(=O)[C@@H]3CC[C@H]12	1.0
CC1O[C@H]2C3=C(C(=O)[C@@H]4O[C@@H]4[C@H]3O)[C@@H]1C1[C@@H](C)OC=C3[C@H](O)C4O[C@@H]4C(=NOCc4ccccc4)[C@]312 (some centres undefined)	0.0
COCOc1ccc(Br)cc1C(=O)[C@@H]1O[C@H]1c1cccc(OC)c1	0.0
COc1cc(O)c(C(=O)C=Cc2ccc3c(c2)OCO3)c(OC)c1	1.0
C=CC[C@@H]1C=C[C@H](ON=C(C)CCC(=O)OC[C@H]2O[C@H](C#Cc3ccccc3)C=C[C@@H]2Oc2ccc(C)cc2)[C@@H](CO)O1	0.0
CO[C@H]1COC(=O)CCC[C@@H](C)[C@H](OC)COC(=O)[C@@H](C)NC(=O)CC=C[C@@H]1C	0.0
CCOC(=O)NN=C1C[C@@H](O)[C@@H](O)[C@@H]2[C@@H]3C(=O)N([C@@H](C)c4ccccc4)C(=O)[C@@H]3CC[C@@H]12	0.0
CC(=O)OC[C@H]1O[C@@H](ON=C(C)CCN2CCCc3nc(C)c(C)cc32)[C@H](OC(C)=O)[C@@H](OC(C)=O)[C@@H]1OC(C)=O	0.0
CC(C)(C)N1C(=O)[C@H]2[C@H]3[C@H](O)C=CC(=O)[C@@H]3CC[C@H]2C1=O	0.0
CC(=O)Nc1ccc([C@@H]2N[C@H](C(=O)O)CC[C@H]2C)cc1	1.0
CCOC(=O)NN=C1C[C@@H](O)[C@@H](O)[C@@H]2[C@@H]3C(=O)N(c4ccc(F)cc4F)C(=O)[C@@H]3CC[C@@H]12	0.0
CCC1=NOC(CCC2CC(OC(=O)NCc3cccc4c3OCO4)CC3(CCCC(COC(=O)NCCc4ccccc4OC)O3)O2)C1 (centres undefined)	1.0
C#CCCCON=C1C[C@@H](O)[C@@H](O)[C@@H]2[C@@H]3C(=O)N(c4cccc(Oc5ccccc5)c4)C(=O)[C@@H]3CC[C@H]12	1.0
